Experiment: Biodistribution in PC-3 tumor-bearing CB17-SCID mice
Type: in vivo
Details: CB17-SCID, mouse, tumor and heart, iv, 100 pmol, total radioactivity; ^68Ga-labeled; 1 h p.i.; n = 4; read-out: Tumor-to-Heart ratio
Starred links: 1 amine or outer side, 2 acyl side, 3 side chain; linkers in the order of their positions; H or OH if unused. Non-standard residues stand in square brackets, D forms with d. Residues, ends and D or L forms follow the SMILES beside them. *: point of attachment. DOTA = O=C(O)CN1CCN(CC(=O)O)CCN(CC(=O)*)CCN(CC(=O)O)CC1; Sta = CC(C)C[C@H](N)[C@@H](O)CC(=O)O; Bta = N[C@@H](Cc1csc2ccccc12)C(=O)O; X1 = O=C(CN1CCC(N[*:1])CC1)[*:2]; hSer = N[C@@H](CCO)C(=O)O
Property: tissue to tissue ratio at 1 h; scope: individual compounds
# answer = number (no unit)

1) CC(C)C[C@H](NC(=O)C[C@H](O)[C@H](CC(C)C)NC(=O)[C@H](Cc1c[nH]cn1)NC(=O)CNC(=O)[C@@H](NC(=O)[C@H](C)NC(=O)[C@H](Cc1csc2ccccc12)NC(=O)[C@H](CCC(N)=O)NC(=O)[C@@H](Cc1ccccc1)NC(=O)CN1CCC(NC(=O)CN2CCN(CC(=O)O)CCN(CC(=O)O)CCN(CC(=O)O)CC2)CC1)C(C)C)C(N)=O [[^68Ga]Ga-[Bta^8]RM2, metal not drawn] ({DOTA}-[X1][dF]Q[Bta]AVGH[Sta]L-NH2); 19.8

Q: # get_value(readout='tissue to tissue ratio at 1 h', item= CC(C)C[C@H](NC(=O)C[C@H](O)[C@H](CC(C)C)NC(=O)[C@H](Cc1c[nH]cn1)NC(=O)CNC(=O)[C@@H](NC(=O)[C@H](C)NC(=O)[C@H](Cc1c[nH]c2ccccc12)NC(=O)[C@H](CCO)NC(=O)[C@@H](Cc1ccccc1)NC(=O)CN1CCC(NC(=O)CN2CCN(CC(=O)O)CCN(CC(=O)O)CCN(CC(=O)O)CC2)CC1)C(C)C)C(N)=O [[^68Ga]Ga-[Hse^7]RM2, metal not drawn] ({DOTA}-[X1][dF][hSer]WAVGH[Sta]L-NH2) )
Ans: 6
